ASSAYED TARGET: biotinylated His-Avi-TEAD (194-411) (UniProt P28347)
TEST PROTOCOL: SSM screen, enrichment after two rounds of sorting
MEASURED PARAMETER: enrichment score
Answers are plain numbers.

Some binders with known enrichment score results, for comparison:
{"columns": ["BINDER", "enrichment score"],
 "data": [
  ["GSPDEYIKRAKECCKKGDIQCCLRYFEESGDPNVMLICLFCP (designed binder) [E06K variant of SEQ ID NO: 1]", -1.13],
  ["GSPDEEIERAKECCKKGDIQCCLRYFEESGDPNVMLICLFCP (designed binder) [Y04E variant of SEQ ID NO: 1]", -6.52],
  ["GSPDEYIERAKECCKKMDIQCCLRYFEESGDPNVMLICLFCP (designed binder) [G15M variant of SEQ ID NO: 1]", 1.64]
]}

Value sought for every listed binder: enrichment score.
1. GSPDNYIERAKECCKKGDIQCCLRYFEESGDPNVMLICLFCP (designed binder) [E03N variant of SEQ ID NO: 1]
2. GSPDEYIERAKECCKKGYIQCCLRYFEESGDPNVMLICLFCP (designed binder) [D16Y variant of SEQ ID NO: 1]
3. GSPDEYIERAKECCKSGDIQCCLRYFEESGDPNVMLICLFCP (designed binder) [K14S variant of SEQ ID NO: 1]

a:
1. 0.58
2. -3.84
3. 1.61
